The reported numbers originate from patent US20050187155A1.

// values below are reported IC50 for the inhibition of MMPs using a fluorescein conjugated gelatin
Measurement target: MMP-2
Protocol notes: cell-based or functional assay
Expressed in µM, but write only the number.

| Binder | Unit string | Quantitative result |
| --- | --- | --- |
| LNENLLRFFVAPFPEVFG [LNENLLRFFVAPFPEVFG (SEQ ID NO:20)] | µM | 250 |
| VENLHLPLPLL [VENLHLPLPLL (SEQ ID NO:18)] | µM | 150 |

Provide IC50 for the inhibition of MMPs using a fluorescein conjugated gelatin value for the following binder: FVAPFPEVFG [FVAPFPEVFG (SEQ ID NO:23)]
500

Look up and state reported IC50 for the inhibition of MMPs using a fluorescein conjugated gelatin for NENLLRFFVAPFPEVFG [NENLLRFFVAPFPEVFG (SEQ ID NO:21)]
275
